Protein target, amino acids: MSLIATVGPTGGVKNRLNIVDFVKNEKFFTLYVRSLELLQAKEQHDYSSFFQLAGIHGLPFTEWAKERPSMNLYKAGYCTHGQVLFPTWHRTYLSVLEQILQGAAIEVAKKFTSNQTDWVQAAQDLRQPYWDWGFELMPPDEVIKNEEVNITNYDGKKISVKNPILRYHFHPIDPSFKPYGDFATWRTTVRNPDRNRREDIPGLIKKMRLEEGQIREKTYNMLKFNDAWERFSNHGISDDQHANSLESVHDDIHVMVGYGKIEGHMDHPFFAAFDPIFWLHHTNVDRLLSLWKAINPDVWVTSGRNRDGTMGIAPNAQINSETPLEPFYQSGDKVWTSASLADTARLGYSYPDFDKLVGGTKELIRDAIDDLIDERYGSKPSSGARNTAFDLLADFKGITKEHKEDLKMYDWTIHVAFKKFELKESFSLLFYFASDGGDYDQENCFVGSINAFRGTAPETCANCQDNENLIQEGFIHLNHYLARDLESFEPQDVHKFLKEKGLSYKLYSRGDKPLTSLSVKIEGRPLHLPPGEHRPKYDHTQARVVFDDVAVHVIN
PROPERTY LABEL: pIC50
// field semantics: pIC50 = negative decimal log of concentration (mol/L)

Task: I am curious: what pIC50 value has been reported for S=c1oc(Cc2cccc3ccccc23)nn1CN1CCCCC1 ?
Result: 6.01
